Experiment: in vitro
Settings: human, HepG2-A16-CD81EGFP cells, uninfected
Listed next: entries and their corresponding viability at 48 h, 3 µM.
Kindly provide the numeric value in % only, without the unit symbol.

Solved entries (count: 3):
molecule: COc1ccc(-c2oc3ccccc3c2C#Cc2cncn2C)cc1
viability at 48 h, 3 µM (%): 95
//
molecule: C=C(C)COc1ccc(-c2ncnc(C(F)(F)F)c2-c2ccc(OC)cc2)c(O)c1
viability at 48 h, 3 µM (%): 104
//
molecule: Cc1cccnc1Nc1nc(-c2ccccn2)cs1
viability at 48 h, 3 µM (%): 30

Enquiry: So what does the record say about viability at 48 h, 3 µM for CCOC(=O)c1sc(NC(=O)CNCc2ccccn2)c(C(=O)OCC)c1C ?
Return: 96

Enquiry: So what does the record say about viability at 48 h, 3 µM for Cn1nnnc1SCCCNCc1cccc(OCc2ccccc2)c1 ?
Return: 101

Enquiry: So what does the record say about viability at 48 h, 3 µM for Oc1ccc(Br)cc1-c1cc(-c2ccc(Cl)cc2)[nH]n1 ?
Return: 87

---

Target: Firefly luciferase (Fluc, EC 1.13.12.7) (Photinus pyralis, UniProt P08659)
Sequence (P08659 whole entry): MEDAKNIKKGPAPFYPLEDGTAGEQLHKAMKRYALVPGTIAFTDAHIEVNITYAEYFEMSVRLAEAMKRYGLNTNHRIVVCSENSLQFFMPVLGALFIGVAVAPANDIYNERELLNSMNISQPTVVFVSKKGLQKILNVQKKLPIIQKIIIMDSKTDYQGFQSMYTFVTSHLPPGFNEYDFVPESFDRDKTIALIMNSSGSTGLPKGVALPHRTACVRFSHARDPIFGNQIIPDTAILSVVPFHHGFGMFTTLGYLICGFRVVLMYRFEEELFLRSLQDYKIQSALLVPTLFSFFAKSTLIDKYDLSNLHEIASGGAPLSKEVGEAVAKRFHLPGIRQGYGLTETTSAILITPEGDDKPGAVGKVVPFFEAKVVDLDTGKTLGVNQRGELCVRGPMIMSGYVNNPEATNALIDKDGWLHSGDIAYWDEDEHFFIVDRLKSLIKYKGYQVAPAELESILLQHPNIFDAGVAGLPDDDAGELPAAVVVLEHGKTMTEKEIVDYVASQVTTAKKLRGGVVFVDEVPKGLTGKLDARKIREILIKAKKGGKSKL
Experiment: biochemical
Set-up: single determination (the paper says generally: 'qHTS assays were performed in a single replicate with a 7- to 11-point dose response format'; it is not stated for this counterscreen itself)
Listed next: entries and their corresponding AC50.
Kindly provide the numeric value in µM only, without the unit symbol.

Solved entries (count: 3):
recordSmiles: NC(=NOC(=O)/C=C/c1ccc(Br)cc1)c1ccccn1
readoutUnits: µM
AC50: 9.62
--
recordSmiles: CCOC(=O)Cc1csc(NC(=S)NC(=O)c2ccc(C)cc2)n1
readoutUnits: µM
AC50: 9.62
--
recordSmiles: Cc1cn2c(=O)cc(COC(=O)c3cccc(NC(=O)COc4ccccc4Cl)c3)nc2s1
readoutUnits: µM
AC50: 0.0341

Enquiry: So what does the record say about AC50 for CCc1ccc2oc(-c3cccc(NC(=O)c4ccc(-c5cccc([N+](=O)[O-])c5)o4)c3)nc2c1 ?
Return: 15.2

Enquiry: So what does the record say about AC50 for O=C(NC1CCCCC1)c1[nH]nc2c1CCCCC2 ?
Return: 4.82

Enquiry: So what does the record say about AC50 for N#CC(=C1CCCC1)c1nc(-c2ccccc2O)cs1 ?
Return: 19.2

Enquiry: So what does the record say about AC50 for Cc1ccoc1C(=O)Nc1ccc(CC(=O)O)cc1 ?
Return: 12.1

Enquiry: So what does the record say about AC50 for O=C1c2cnc(-c3cc4ccccc4o3)nc2OCCN1Cc1ccccc1 ?
Return: 11.1

Enquiry: So what does the record say about AC50 for c1ccc2sc(Sc3ncnc4sccc34)nc2c1 ?
Return: 8.57

---

Test system: P. falciparum Dd2 Cytb G131S
Experiment: SYBR Green ABS proliferation assay, NCGC00374598 selected clone C11
Type: cell-based, Plasmodium falciparum
Conditions: Plasmodium falciparum, DD2, NCGC00374598 selected clone C11; read-out: AC50 [μM], Cytb G131S (converted)
assayEndpoint: AC50 (µM)
Kindly provide the numeric value in µM only, without the unit symbol.

Solved entries (count: 2):
compound: CCCN1C(CC(C)C)=NS(=O)(=O)c2cc(NC(=O)c3ccc(Cl)s3)ccc21 [NCGC00523535]
endpointValue: 1
//
compound: CC(C)CC1=NS(=O)(=O)c2cc(NC(=O)c3cccs3)ccc2N1C [NCGC00521057]
endpointValue: 0.225

Enquiry: So what does the record say about AC50 for CCCN1C(CC2CCCCC2)=NS(=O)(=O)c2cc(NC(=O)c3ccc(F)cc3)ccc21 [NCGC00532335] ?
Return: 0.861
